The values you see were collected from patent US10907197B2.

experimental target: Q46 protein aggregates (Homo sapiens, UniProt P42858, INS38QQQQQQQQQQQQQQQQQQQQQQQQQ)
Construct: 33 μM GST-Q46 was incubated with 150 μg/mL thrombin in assay buffer (150 mM NaCl, 50 mM Tris pH 8.0) and 2 mM CaCl2 for 16 hr at 37° C; fused on or other part: GST at the N-terminus
Sequence (P42858 with tags, fused parts or gaps with the stated changes): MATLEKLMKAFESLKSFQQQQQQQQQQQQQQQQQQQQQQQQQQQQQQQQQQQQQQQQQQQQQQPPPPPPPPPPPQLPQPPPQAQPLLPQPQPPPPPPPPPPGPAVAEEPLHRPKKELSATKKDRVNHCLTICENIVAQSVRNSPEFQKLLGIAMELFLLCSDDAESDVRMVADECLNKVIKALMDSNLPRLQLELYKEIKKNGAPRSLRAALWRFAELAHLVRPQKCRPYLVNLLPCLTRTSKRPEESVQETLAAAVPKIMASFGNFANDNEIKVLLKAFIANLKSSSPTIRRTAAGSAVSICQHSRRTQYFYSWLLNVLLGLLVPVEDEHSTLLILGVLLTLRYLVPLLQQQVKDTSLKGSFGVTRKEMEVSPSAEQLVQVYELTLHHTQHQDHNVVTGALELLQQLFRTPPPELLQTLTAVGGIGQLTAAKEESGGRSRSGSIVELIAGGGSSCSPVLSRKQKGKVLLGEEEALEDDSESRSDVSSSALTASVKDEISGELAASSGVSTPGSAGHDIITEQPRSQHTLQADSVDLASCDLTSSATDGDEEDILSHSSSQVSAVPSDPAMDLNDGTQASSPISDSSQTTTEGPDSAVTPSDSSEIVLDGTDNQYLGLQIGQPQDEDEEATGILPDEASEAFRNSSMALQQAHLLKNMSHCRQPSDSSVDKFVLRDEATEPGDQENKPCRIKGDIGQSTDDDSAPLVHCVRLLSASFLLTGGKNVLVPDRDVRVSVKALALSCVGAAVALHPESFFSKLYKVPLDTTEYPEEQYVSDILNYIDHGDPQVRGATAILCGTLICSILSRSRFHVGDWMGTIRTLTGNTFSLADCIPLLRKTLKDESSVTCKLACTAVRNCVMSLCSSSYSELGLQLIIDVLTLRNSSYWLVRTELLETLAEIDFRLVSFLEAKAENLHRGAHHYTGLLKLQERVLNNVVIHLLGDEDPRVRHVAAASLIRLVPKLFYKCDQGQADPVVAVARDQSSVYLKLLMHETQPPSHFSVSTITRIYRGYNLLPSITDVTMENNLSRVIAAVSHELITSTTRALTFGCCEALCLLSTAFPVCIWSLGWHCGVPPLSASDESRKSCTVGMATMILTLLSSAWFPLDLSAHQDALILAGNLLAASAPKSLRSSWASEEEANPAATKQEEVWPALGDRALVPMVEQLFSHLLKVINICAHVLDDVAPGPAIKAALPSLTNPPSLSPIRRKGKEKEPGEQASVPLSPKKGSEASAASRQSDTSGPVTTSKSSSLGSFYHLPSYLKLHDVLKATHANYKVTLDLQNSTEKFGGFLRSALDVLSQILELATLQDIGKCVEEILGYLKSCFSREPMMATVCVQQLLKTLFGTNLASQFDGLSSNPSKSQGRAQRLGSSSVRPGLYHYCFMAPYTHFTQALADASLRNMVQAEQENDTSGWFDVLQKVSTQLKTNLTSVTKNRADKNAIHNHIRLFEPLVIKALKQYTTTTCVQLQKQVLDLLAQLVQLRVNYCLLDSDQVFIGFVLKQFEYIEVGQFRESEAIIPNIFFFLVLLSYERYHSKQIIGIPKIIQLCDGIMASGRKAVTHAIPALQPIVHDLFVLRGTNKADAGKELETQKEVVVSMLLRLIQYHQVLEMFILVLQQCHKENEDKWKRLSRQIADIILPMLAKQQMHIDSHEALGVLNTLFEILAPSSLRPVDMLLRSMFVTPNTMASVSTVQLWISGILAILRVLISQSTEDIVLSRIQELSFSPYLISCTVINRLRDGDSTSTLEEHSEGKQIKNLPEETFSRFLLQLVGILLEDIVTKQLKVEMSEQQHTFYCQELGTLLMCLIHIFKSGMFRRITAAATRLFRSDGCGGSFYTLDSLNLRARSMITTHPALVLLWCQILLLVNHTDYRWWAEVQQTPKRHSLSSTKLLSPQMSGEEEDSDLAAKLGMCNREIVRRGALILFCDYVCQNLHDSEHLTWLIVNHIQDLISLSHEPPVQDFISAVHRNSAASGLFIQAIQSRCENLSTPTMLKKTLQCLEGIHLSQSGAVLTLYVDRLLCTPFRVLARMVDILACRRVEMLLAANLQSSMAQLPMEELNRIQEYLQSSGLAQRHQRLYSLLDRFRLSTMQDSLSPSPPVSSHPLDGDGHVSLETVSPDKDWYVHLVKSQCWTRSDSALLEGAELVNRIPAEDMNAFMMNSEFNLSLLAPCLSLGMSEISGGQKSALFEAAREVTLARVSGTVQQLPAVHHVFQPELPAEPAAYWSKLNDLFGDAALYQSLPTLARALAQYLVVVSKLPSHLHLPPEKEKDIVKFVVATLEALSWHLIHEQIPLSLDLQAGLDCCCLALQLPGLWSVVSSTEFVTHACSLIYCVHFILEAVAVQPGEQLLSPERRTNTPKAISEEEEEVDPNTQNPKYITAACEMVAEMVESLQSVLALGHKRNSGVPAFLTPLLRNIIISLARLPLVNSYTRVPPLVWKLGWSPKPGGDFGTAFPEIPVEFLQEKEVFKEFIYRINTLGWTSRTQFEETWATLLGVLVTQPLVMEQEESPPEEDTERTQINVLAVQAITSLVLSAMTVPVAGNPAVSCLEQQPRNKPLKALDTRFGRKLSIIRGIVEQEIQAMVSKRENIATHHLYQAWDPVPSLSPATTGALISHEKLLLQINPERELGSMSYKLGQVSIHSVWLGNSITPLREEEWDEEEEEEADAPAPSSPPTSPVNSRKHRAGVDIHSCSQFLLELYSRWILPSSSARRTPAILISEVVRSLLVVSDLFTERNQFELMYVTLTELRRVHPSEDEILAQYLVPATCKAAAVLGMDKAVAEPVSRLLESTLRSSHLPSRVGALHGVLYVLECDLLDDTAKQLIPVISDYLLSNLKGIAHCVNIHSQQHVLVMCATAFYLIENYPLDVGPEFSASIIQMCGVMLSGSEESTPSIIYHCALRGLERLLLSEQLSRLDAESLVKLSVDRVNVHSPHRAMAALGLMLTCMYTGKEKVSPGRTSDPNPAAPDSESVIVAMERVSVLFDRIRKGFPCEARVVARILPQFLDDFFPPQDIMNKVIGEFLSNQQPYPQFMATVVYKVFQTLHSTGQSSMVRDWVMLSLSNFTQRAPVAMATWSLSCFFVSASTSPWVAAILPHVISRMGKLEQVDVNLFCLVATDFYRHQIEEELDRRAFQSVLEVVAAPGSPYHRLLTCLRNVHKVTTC
assay method text: Q46 Radioligand Binding Assay (RBA)
measurement parameters: displacement of 10 nM [3H3]MK-3328 from 5 μM Q46 protein aggregates, 60 min at 37° C.
Below, each entry is listed alongside its reported IC50.
outcome measure: IC50

N#Cc1cnccc1-c1nc2ccccc2s1: > 500 nM
C#Cc1cnccc1-c1cc2cc(OC)ccc2o1: < 100 nM
COc1ccc2oc(C3=C(C#N)SC4=NCCN43)cc2c1: < 100 nM
COc1ccc2nc(-c3ccncc3-c3ccn[nH]3)sc2c1: 100 to 500 nM
COc1ccc2nc(-c3ccccc3C#N)sc2c1: < 100 nM
N#Cc1cnccc1-c1cc2cc(OCCF)ccc2o1: < 100 nM
COc1cc2cc(-c3ccncc3C#N)oc2cn1: < 100 nM

---

experimental target: Q46 protein aggregates (Homo sapiens, UniProt P42858, INS38QQQQQQQQQQQQQQQQQQQQQQQQQ)
Construct: 33 μM GST-Q46 was incubated with 150 μg/mL thrombin in assay buffer (150 mM NaCl, 50 mM Tris pH 8.0) and 2 mM CaCl2 for 16 hr at 37° C; fused on or other part: GST at the N-terminus
assay method text: Q46 Radioligand Binding Assay (RBA)
measurement parameters: displacement of 10 nM [3H3]MK-3328 from 5 μM Q46 protein aggregates, 60 min at 37° C.
outcome measure: IC50

N#CC1=C(c2cc3cc(O)ccc3o2)N2CCN=C2S1: < 100 nM
COc1cnc2oc(-c3ccccc3C#N)cc2c1: < 100 nM
COc1ccc2nc(-c3ccncc3Br)sc2c1: < 100 nM
O=c1[nH]cc(Br)cc1-c1cc2cc(Br)cnc2o1: < 100 nM
COc1ccc2nc(-c3ccncc3F)sc2c1: < 100 nM
CNc1cnccc1-c1nc2ccc(OC)cc2s1: 100 to 500 nM
COc1ccc2oc(-c3ccc(Br)cc3C#N)cc2c1: < 100 nM
N#Cc1cnccc1-c1nc2ccc(OCCF)cc2s1: < 100 nM
Cc1cccc(-c2nc3cc(N)cnc3o2)c1: > 500 nM
COc1ccc2nc(-c3ncccc3C#N)sc2c1: < 100 nM
COc1ccc2cc(-c3ccncc3C#N)ccc2c1: 100 to 500 nM
COc1cnc2cc(-c3ccncc3C#N)oc2c1: < 100 nM
Oc1ccc2nc(-c3ccncc3Br)sc2c1: 100 to 500 nM
COc1ccc2nc(-c3ccncc3NC(C)=O)sc2c1: < 100 nM
COc1ccc2nc(-c3ccncc3C#N)sc2c1: 100 to 500 nM
COc1ccc2nc(-c3ccncc3C#N)[nH]c2c1: > 500 nM
COc1ccc2oc(-c3cc(CN(C)C)ccc3C#N)cc2c1: < 100 nM
COc1ccc2nc(-c3cnccc3C#N)sc2c1: < 100 nM
COc1ccc2sc(-c3ccncc3C#N)nc2c1: 100 to 500 nM
COc1ccc2oc(-c3ccncc3)c(Br)c2c1: < 100 nM
COc1ccc2nc(-c3cccnc3)oc2c1: 100 to 500 nM
COc1ccc2oc(-c3ccncc3C#N)cc2c1: < 100 nM
N#Cc1cnccc1-c1cc2cc(O)ccc2o1: < 100 nM
COCOc1ccc2oc(-c3cn(C)nc3C#N)cc2c1: < 100 nM
N#Cc1ccccc1-c1cc2cc(Br)cnc2o1: < 100 nM
COc1ccc2oc(-c3cccc(NC(C)=O)n3)cc2c1: < 100 nM
COc1ncc2cc(-c3ccccc3C#N)oc2n1: < 100 nM
Cc1cccc(-c2nc3cc(N)ccc3o2)c1: 100 to 500 nM
COc1ccc2oc(-c3ccncc3I)cc2c1: 100 to 500 nM
COc1ccc2nc(-c3ncccc3Br)sc2c1: < 100 nM
